Taken from patent US20180235949A1.

# testSystem: CYP2D6 (Homo sapiens, UniProt P10635)
# Construct: from tissue
# Sequence (P10635 whole entry): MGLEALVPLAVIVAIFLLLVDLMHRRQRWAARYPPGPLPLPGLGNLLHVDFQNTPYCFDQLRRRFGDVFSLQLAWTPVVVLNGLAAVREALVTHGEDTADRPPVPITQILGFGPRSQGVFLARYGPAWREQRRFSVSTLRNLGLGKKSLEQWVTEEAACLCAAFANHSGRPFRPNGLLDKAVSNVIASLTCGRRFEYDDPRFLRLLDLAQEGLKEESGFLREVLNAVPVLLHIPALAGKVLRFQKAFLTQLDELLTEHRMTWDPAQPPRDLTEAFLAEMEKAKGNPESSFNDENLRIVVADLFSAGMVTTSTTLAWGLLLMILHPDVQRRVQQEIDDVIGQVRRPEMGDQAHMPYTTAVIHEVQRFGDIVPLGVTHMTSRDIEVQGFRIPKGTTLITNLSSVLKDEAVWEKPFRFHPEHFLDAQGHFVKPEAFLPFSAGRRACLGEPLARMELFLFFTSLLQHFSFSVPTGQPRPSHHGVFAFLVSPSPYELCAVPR
# protocolText: Time dependent inhibition of CYP2D6 (dextromethorphan; IC50 shift)
# Assay type: in vitro ADME
# appliedConditions: human, microsomes, probe dextromethorphan (5 µM); 25 μM, 0 minute incubation
quantity: inhibition at 5 min, 25 µM

INSERT INTO assay_data (querysmiles, quantity, testresult) VALUES
  ('CCC(=O)NC1CCN(CCc2ccccc2)CC1', 'inhibition at 5 min, 25 µM', '~40%');

* * *

Reported nH values are given for each entry in this list.
# testSystem: κ (KOP) (Rattus norvegicus, UniProt P34975)
# Sequence (P34975 whole entry): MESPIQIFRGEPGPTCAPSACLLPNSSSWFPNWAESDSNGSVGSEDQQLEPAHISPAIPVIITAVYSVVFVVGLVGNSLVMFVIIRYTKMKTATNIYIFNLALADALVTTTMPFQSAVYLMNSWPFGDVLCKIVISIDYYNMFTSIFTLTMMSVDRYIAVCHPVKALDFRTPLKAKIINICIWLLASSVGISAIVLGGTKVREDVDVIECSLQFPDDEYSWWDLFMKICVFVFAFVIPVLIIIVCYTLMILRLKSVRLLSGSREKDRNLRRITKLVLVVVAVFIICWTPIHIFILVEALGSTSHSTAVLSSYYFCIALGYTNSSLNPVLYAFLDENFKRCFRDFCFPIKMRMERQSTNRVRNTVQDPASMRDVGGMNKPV
# Assay type: binding
quantity: nH

INSERT INTO assay_data (compound, testsystem, testresult) VALUES
  ('O=C(NC1CCN(CCc2ccccc2)CC1)c1ccco1', 'κ (KOP) (Rattus norvegicus, UniProt P34975)', 1.1),
  ('CCC(=O)NC1CCN(CCc2cccs2)CC1', 'κ (KOP) (Rattus norvegicus, UniProt P34975)', 0.6),
  ('O=C(NC1CCN(CCc2ccccc2)CC1)c1ccccc1 [N-(1-phenethylpiperidin-4-yl)benzamide]', 'κ (KOP) (Rattus norvegicus, UniProt P34975)', 0.6),
  ('CCC(=O)NC1CCN(CCC(=O)OC)CC1', 'κ (KOP) (Rattus norvegicus, UniProt P34975)', 0.8),
  ('O=C(NC1CCN(CCc2ccccc2)CC1)c1ccoc1', 'κ (KOP) (Rattus norvegicus, UniProt P34975)', 1.1),
  ('O=C(CCCCCCCBr)NC1CCN(CCc2ccccc2)CC1', 'κ (KOP) (Rattus norvegicus, UniProt P34975)', 0.5);
